# Tested on: PBMCs derived from HCV-infected patients
# Test Summary: Ex vivo IFN-γ ELISPOT assay
# Format: cell-based, human
# Particulars: HLA-B molecule B51
Test Readout: Number of patients showing positive response/Number of patients having specific MHC type

Recorded Number of patients showing positive response/Number of patients having specific MHC type (substance L2: HCV epitope peptide of 9 amino acids, E2, region 632 (YVGGVEHRL) [Peptide L2] ): 2/10

Lab book: Number of patients showing positive response/Number of patients having specific MHC type of C4: HCV epitope peptide of 9 amino acids, NS2, region 894 (AILGPLMVF) [Peptide C4] noted as 5/10

So, L1: HCV epitope peptide of 9 amino acids, Core, region 118 (NLGKVIDTL) [Peptide L1] ? Its Number of patients showing positive response/Number of patients having specific MHC type was 1/10

Given item C1: HCV epitope peptide of 9 amino acids, NS3, region 1338 (TAGARLVVL) [Peptide C1] , the value recorded as its Number of patients showing positive response/Number of patients having specific MHC type is 2/10

// Number of patients showing positive response/Number of patients having specific MHC type lookup, substance = L6: HCV epitope peptide of 9 amino acids, E2, region 628 (KVRMYVGGV) [Peptide L6] , result: 3/10

Value of Number of patients showing positive response/Number of patients having specific MHC type reported for the substance L7: HCV epitope peptide of 9 amino acids, NS2, region 883 (ELIFDITKL) [Peptide L7] is 2/10

----------
# Tested on: PBMCs derived from HCV-infected patients
# Test Summary: Ex vivo IFN-γ ELISPOT assay
# Type: cell-based, human
# Particulars: of 9 HLA types found in the patients (A2, A24, A26, A3, B7, B15, B27, B44, B51)
Let's look at some substances and their measured number of HLA types the epitope was positive to.
Give only the figure.

Use these answered entries as a reference point.
Substance: C4: HCV epitope peptide of 9 amino acids, NS2, region 894 (AILGPLMVF) [Peptide C4]
Assay System: PBMCs derived from HCV-infected patients
Measured Number: 7
--
Substance: L6: HCV epitope peptide of 9 amino acids, E2, region 628 (KVRMYVGGV) [Peptide L6]
Assay System: PBMCs derived from HCV-infected patients
Measured Number: 7
--
Substance: C1: HCV epitope peptide of 9 amino acids, NS3, region 1338 (TAGARLVVL) [Peptide C1]
Assay System: PBMCs derived from HCV-infected patients
Measured Number: 6
--
Substance: L7: HCV epitope peptide of 9 amino acids, NS2, region 883 (ELIFDITKL) [Peptide L7]
Assay System: PBMCs derived from HCV-infected patients
Measured Number: 8
--
Substance: L2: HCV epitope peptide of 9 amino acids, E2, region 632 (YVGGVEHRL) [Peptide L2]
Assay System: PBMCs derived from HCV-infected patients
Measured Number: 8

Now for a further substance.
number of HLA types the epitope was positive to reading for L1: HCV epitope peptide of 9 amino acids, Core, region 118 (NLGKVIDTL) [Peptide L1] : 6

----------
# System: PBMCs derived from HCV-infected patients
# Test Summary: Ex vivo IFN-γ ELISPOT assay
# Format: cell-based, human
# Particulars: HLA-B15 type patients; positive = 30 or more SFCs per 2×10^5 PBMCs
Test Readout: responsiveness of positive reaction (%)
State just the number; it will be interpreted in %.

Sample answers from the record:
Substance: L7: HCV epitope peptide of 9 amino acids, NS2, region 883 (ELIFDITKL) [Peptide L7]
Assay System: PBMCs derived from HCV-infected patients
Test Readout: responsiveness of positive reaction
Measured Number: 22.2
//
Substance: C4: HCV epitope peptide of 9 amino acids, NS2, region 894 (AILGPLMVF) [Peptide C4]
Assay System: PBMCs derived from HCV-infected patients
Test Readout: responsiveness of positive reaction
Measured Number: 44.4
//
Substance: L2: HCV epitope peptide of 9 amino acids, E2, region 632 (YVGGVEHRL) [Peptide L2]
Assay System: PBMCs derived from HCV-infected patients
Test Readout: responsiveness of positive reaction
Measured Number: 22.2
//
Substance: L6: HCV epitope peptide of 9 amino acids, E2, region 628 (KVRMYVGGV) [Peptide L6]
Assay System: PBMCs derived from HCV-infected patients
Test Readout: responsiveness of positive reaction
Measured Number: 11.1
//
Substance: C1: HCV epitope peptide of 9 amino acids, NS3, region 1338 (TAGARLVVL) [Peptide C1]
Assay System: PBMCs derived from HCV-infected patients
Test Readout: responsiveness of positive reaction
Measured Number: 0

Now for the substance whose responsiveness of positive reaction we want.
So, L1: HCV epitope peptide of 9 amino acids, Core, region 118 (NLGKVIDTL) [Peptide L1] ? Its responsiveness of positive reaction was 0

----------
# System: PBMCs derived from HCV-infected patients
# Test Summary: Ex vivo IFN-γ ELISPOT assay
# Type: cell-based, human
# Particulars: HLA-B molecule B44
Test Readout: Number of patients showing positive response/Number of patients having specific MHC type

Solved entries (count: 3):
Substance: L2: HCV epitope peptide of 9 amino acids, E2, region 632 (YVGGVEHRL) [Peptide L2]
Assay System: PBMCs derived from HCV-infected patients
Result: 1/9
--
Substance: C1: HCV epitope peptide of 9 amino acids, NS3, region 1338 (TAGARLVVL) [Peptide C1]
Assay System: PBMCs derived from HCV-infected patients
Result: 2/9
--
Substance: L1: HCV epitope peptide of 9 amino acids, Core, region 118 (NLGKVIDTL) [Peptide L1]
Assay System: PBMCs derived from HCV-infected patients
Result: 3/9

Per the record, C4: HCV epitope peptide of 9 amino acids, NS2, region 894 (AILGPLMVF) [Peptide C4] has Number of patients showing positive response/Number of patients having specific MHC type of 2/9

Reported Number of patients showing positive response/Number of patients having specific MHC type for L7: HCV epitope peptide of 9 amino acids, NS2, region 883 (ELIFDITKL) [Peptide L7] was 1/9

// recorded Number of patients showing positive response/Number of patients having specific MHC type for L6: HCV epitope peptide of 9 amino acids, E2, region 628 (KVRMYVGGV) [Peptide L6] : 1/9

----------
# System: PBMCs derived from HCV-infected patients
# Test Summary: Ex vivo IFN-γ ELISPOT assay
# Format: cell-based, human
# Particulars: HLA-A molecule A24
Parameter: Number of patients showing positive response/Number of patients having specific MHC type. Scope: all listed entries.

Substance: C4: HCV epitope peptide of 9 amino acids, NS2, region 894 (AILGPLMVF) [Peptide C4]
Result: 7/24
--
Substance: L6: HCV epitope peptide of 9 amino acids, E2, region 628 (KVRMYVGGV) [Peptide L6]
Result: 2/24

Reported Number of patients showing positive response/Number of patients having specific MHC type ( C1: HCV epitope peptide of 9 amino acids, NS3, region 1338 (TAGARLVVL) [Peptide C1] ) = 1/24

// Number of patients showing positive response/Number of patients having specific MHC type lookup, substance = L2: HCV epitope peptide of 9 amino acids, E2, region 632 (YVGGVEHRL) [Peptide L2] , result: 3/24

Entry under test: L1: HCV epitope peptide of 9 amino acids, Core, region 118 (NLGKVIDTL) [Peptide L1] . Its Number of patients showing positive response/Number of patients having specific MHC type was 2/24

So for L7: HCV epitope peptide of 9 amino acids, NS2, region 883 (ELIFDITKL) [Peptide L7] , the logged Number of patients showing positive response/Number of patients having specific MHC type turned out to be 3/24

----------
# System: PBMCs derived from HCV-infected patients
# Test Summary: Ex vivo IFN-γ ELISPOT assay
# Type: cell-based, human
# Particulars: HLA-B44 type patients; positive = 30 or more SFCs per 2×10^5 PBMCs
Test Readout: responsiveness of positive reaction (%)
# number only, unit % dropped from output

Sample answers from the record:
Substance: L7: HCV epitope peptide of 9 amino acids, NS2, region 883 (ELIFDITKL) [Peptide L7]
Assay System: PBMCs derived from HCV-infected patients
Measured Number: 11.1

Substance: L2: HCV epitope peptide of 9 amino acids, E2, region 632 (YVGGVEHRL) [Peptide L2]
Assay System: PBMCs derived from HCV-infected patients
Measured Number: 11.1

Substance: C1: HCV epitope peptide of 9 amino acids, NS3, region 1338 (TAGARLVVL) [Peptide C1]
Assay System: PBMCs derived from HCV-infected patients
Measured Number: 22.2

Noted responsiveness of positive reaction for C4: HCV epitope peptide of 9 amino acids, NS2, region 894 (AILGPLMVF) [Peptide C4] , tested on PBMCs derived from HCV-infected patients: 22.2

# value of responsiveness of positive reaction, PBMCs derived from HCV-infected patients, item L6: HCV epitope peptide of 9 amino acids, E2, region 628 (KVRMYVGGV) [Peptide L6] = 11.1

Noted responsiveness of positive reaction for L1: HCV epitope peptide of 9 amino acids, Core, region 118 (NLGKVIDTL) [Peptide L1] , tested on PBMCs derived from HCV-infected patients: 33.3
